# Test system: SF-268 CNS
# Assay Protocol: NCI-60 one-dose screen, 48 h (100 = growth as untreated, 0 = no growth, -100 = all killed)
# Measurement Context: 10 µM unless noted
This is part of a sample that, as a whole, favours compounds with a hit. Of some 83,000 tested, about 20% had one in any assay.
Could you please classify the records by growth using these ranges: bin 0: < 30%; bin 1: ≥ 30% and < 60%; bin 2: ≥ 60%

Lab note: which band did COc1ccc(/C=C/C(=O)c2cccc(NC(=O)CSc3nc4ccccc4c(=O)n3-c3ccccc3)c2)cc1OC land in?
bin 2

Lab note: which band did CC(=O)Nc1cccc(Nc2nc(N[C@@H](C)c3ccccc3)c3ccccc3n2)c1 land in?
bin 0

Lab note: which band did CC1(C)NCCC[C@]2(C)[C@H]3C/C(=N\O)C4[C@@H]5C[C@@](C)(CO)CC[C@]5(C)CC[C@@]4(C)[C@]3(C)CC[C@@H]12 (some centres not stated) land in?
bin 2

Lab note: which band did COc1c(N2CC3CCCNC3C2)c(F)cc2c(=O)c(C(=O)N/N=C/c3ccc(F)cc3)cn(C3CC3)c12 (configuration not stated) land in?
bin 2

Lab note: which band did NC(N)=Nc1ccc(Oc2cccc(Nc3ccc(Cl)c(C(F)(F)F)c3)c2)cn1 land in?
bin 0

Lab note: which band did O=C(CCn1c[n+](CC(=O)c2ccc(-c3ccccc3)cc2)c2ccccc21)Nc1cccc2cccnc12 land in?
bin 1

Lab note: which band did c1n[nH]cc1-c1nc2ccc3[nH]ncc3c2c2c1CCCC2 land in?
bin 0

Lab note: which band did COc1ccc(Cn2cc3c(c2-c2cc(OC)c(OC)c(OC)c2)CCc2c(CN4CCOCC4)noc2-3)cc1 land in?
bin 1

Lab note: which band did C[C@H](CCC(=O)NCc1ccc(C(=O)Nc2ccccc2N)cc1)[C@H]1CC[C@H]2[C@@H]3[C@@H](O)C[C@@H]4C[C@H](O)CC[C@]4(C)[C@H]3CC[C@]12C land in?
bin 1

Lab note: which band did CCOP(=O)(OCC)OC[C@]12CCC(C)(C)C=C1[C@H]1CC[C@@H]3[C@@]4(C)CC[C@H](OP(=O)(OCC)OCC)C(C)(C)[C@@H]4CC[C@@]3(C)[C@]1(C)CC2 land in?
bin 0

Lab note: which band did CC(C)(C)c1ccc(C(=O)Nc2nc3ccc(O)cc3s2)cc1 land in?
bin 1

Lab note: which band did COC(=O)c1ccc(NC2=C/C(=N/S(=O)(=O)c3ccc(C(=O)O)cc3)c3ccccc3C2=O)cc1 land in?
bin 1

Lab note: which band did COc1ccc(Oc2ccc(/C=N/NC(=O)CSc3nc4ccccc4c(=O)n3-c3ccc(Cl)cc3)cc2)cc1 land in?
bin 1

Lab note: which band did O=C1C(c2ccccc2)=C(N2CCc3ccccc32)OC1(Cl)Cl land in?
bin 2

Lab note: which band did COc1cc(/C=C2\C(=O)Nc3cc(Cl)ccc32)ccc1OCc1ccc(F)cc1 land in?
bin 2

Lab note: which band did CCN(CC)c1ccc2c(c1)Oc1nc(N)c(C#N)c(N)c1C2Sc1ccc(C)cc1 (configuration not stated) land in?
bin 0
